# TEST SYSTEM: Glutamate NMDA receptor
# ASSAY NAME: Inhibition of [3H]MK-801 binding to NMDA receptor by Conantokin-G (at a concentration range of 0.024-12.5 uM) stimulated by the compound at a concentration of 100 uM
# Type: protein-complex assay
OBSERVABLE: pIC50
Interpret pIC50 as the negative base-10 log of the concentration measured in mol/L.

Qu. Param item = NCC(=O)N1CCCN(C(=O)CN)CC1 ; retrieve measured pIC50.
Ans. 3.51

---

# TEST SYSTEM: Glutamate NMDA receptor (Rattus norvegicus) (UniProt P35439+Q00959+Q00960+Q00961+Q62645+Q8VHN2+Q9R1M7)
# ASSAY NAME: Efficacy in enhancing binding of [3H]- MK-801 to NMDA receptors compared to spermine
# Assay type: protein-complex assay
As shown below, each of these compounds has a reported Emax value.

STRUCTURE AS SMILES	TEST VALUE
C1CCN(CCCN2CCN(CCCN3CCCC3)CC2)C1	64%
NCCCCN1CCCN(CCCCN)CC1	76%
CN(C)CCCCN1CCN(CCCCN(C)C)CC1	84%
NCCCN1CCCN(CCCN)CC1	76%
NCC(=O)N1CCN(C(=O)CN)CC1	90%

Qu. Looking for the measured Emax of NCCN1CCCN(CCN)CC1 , can you help?
Ans. 43%

Qu. Query (compound): CN(C)CCN1CCN(CCN(C)C)CC1 ; field requested: Emax
Ans. 51%

Qu. Emax lookup needed for NCCCC(=O)N1CCN(C(=O)CCCN)CC1 , thanks.
Ans. 45%

Qu. Looking for the measured Emax of NCCCCN1CCN(CCCCN)CC1 , can you help?
Ans. 71%

Qu. Look at this compound and give its reported Emax. CNCCN1CCN(CCNC)CC1
Ans. 50%

---

# TEST SYSTEM: Glutamate NMDA receptor
# ASSAY NAME: Inhibition of [3H]MK-801 binding to NMDA receptor by Conantokin-G (with a concentration range of 0.024-12.5 uM) stimulated by the compound at a concentration of 100 uM
# Assay type: protein-complex assay
OBSERVABLE: pIC50
As a rule, pIC50 stands for the negative log10 of the concentration, concentration in M.

Qu. Recorded pIC50 of CNCCCCN1CCN(CCCCNC)CC1 , please.
Ans. 3.71

---

# TEST SYSTEM: Glutamate NMDA receptor
# ASSAY NAME: Ability to enhance [3H]MK-801 binding to NMDA receptors in rat forebrain membranes was calculated with respect to spermine
Entries and their measured EC50 follow.
Answer format: numeric, µM implied, no suffix.

MOLECULE	EC50 [µM]
NCCCN1CCN(CCCN)CC1	50.1

Qu. Give the measured EC50 of NCCCCN1CCN(CCCCN)CC1 .
Ans. 55.9

Qu. Look up EC50 for this molecule: NCCCN1CCCN(CCCN)CC1
Ans. 24.4

Qu. // returns reported EC50 for input NCCCNCCCCNCCCN [SPERMINE]
Ans. 5.2

Qu. Data request, read-out EC50, for CN(C)CCCCN1CCN(CCCCN(C)C)CC1
Ans. 77.5

Qu. Which EC50 is reported for this molecule? C1CCN(CCCN2CCN(CCCN3CCCC3)CC2)C1
Ans. 45.9

Qu. Look at this molecule and give its reported EC50. CNCCN1CCN(CCNC)CC1
Ans. 64.5

Qu. Item NCC(=O)N1CCN(C(=O)CN)CC1 has what recorded EC50?
Ans. 96.5

---

# TEST SYSTEM: Glutamate NMDA receptor
# ASSAY NAME: Ability to enhance [3H]MK-801 binding to NMDA receptors in rat forebrain membranes was calculated with respect to spermine
OBSERVABLE: EC50 (µM)
Please respond with the number in µM and leave the unit unwritten.

STRUCTURE AS SMILES	OBSERVABLE	TEST VALUE
CNCCCCN1CCN(CCCCNC)CC1	EC50	21.4
NCCN1CCCN(CCN)CC1	EC50	50.7
CN(C)CCCN1CCN(CCCN(C)C)CC1	EC50	36.8
NCC(=O)N1CCCN(C(=O)CN)CC1	EC50	18

Now consider the entry below.
Qu. I have this compound here, NCCCCN1CCCN(CCCCN)CC1 , and I need its recorded EC50.
Ans. 37.5

---

# TEST SYSTEM: Glutamate NMDA receptor (Rattus norvegicus) (UniProt P35439+Q00959+Q00960+Q00961+Q62645+Q8VHN2+Q9R1M7)
# ASSAY NAME: Efficacy in enhancing binding of [3H]- MK-801 to NMDA receptors compared to spermine
# Assay type: protein-complex assay
Listed here: items and their measured Emax.
Please state the number and follow it with the unit.

Qu. Which measured Emax value corresponds to CNCCCCN1CCN(CCCCNC)CC1 ?
Ans. 68%

Qu. Need Emax, item NCCCN1CCN(CCCN)CC1
Ans. 80%

Qu. Which Emax is listed for CN(C)CCCN1CCN(CCCN(C)C)CC1 ?
Ans. 66%

Qu. Given the compound CNCCCN1CCN(CCCNC)CC1 , what is its reported Emax?
Ans. 81%

Data credit: ChEMBL document CHEMBL1128668
